B1: Caulobacter ParB omega fusion; a variant is named by its letters at X, in order, B8GW30 (parent)
chain: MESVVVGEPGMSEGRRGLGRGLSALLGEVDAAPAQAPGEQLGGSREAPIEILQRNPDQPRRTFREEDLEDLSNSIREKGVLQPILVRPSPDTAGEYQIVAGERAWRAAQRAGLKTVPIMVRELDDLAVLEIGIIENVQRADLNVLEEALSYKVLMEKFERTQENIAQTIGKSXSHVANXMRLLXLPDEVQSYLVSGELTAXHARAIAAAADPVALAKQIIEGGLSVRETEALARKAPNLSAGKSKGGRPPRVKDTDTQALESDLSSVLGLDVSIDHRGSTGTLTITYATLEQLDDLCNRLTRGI

Variants of: B1
protocolSummary: one-hybrid fitness for binding NBS DNA (the Noc-binding site; scaled: cognate 1, non-cognate 0); higher = stronger binding
experimentalConditions: with NBS DNA site
The full ranking holds about 81,000 sequences; the median of “one-hybrid fitness for binding NBS DNA” is about -0.1, and the highest 2% start at about 0.36. The sample holds the highest values, similar sequences and a random draw of the others, so the mix is not that of the screen.
one-hybrid fitness for binding NBS DNA listing for selected variants.
reportedProperty: one-hybrid fitness for binding NBS DNA

variantspec=PHSL reportedproperty="one-hybrid fitness for binding NBS DNA" observedresult="≤ 0.2"
variantspec=QTDL reportedproperty="one-hybrid fitness for binding NBS DNA" observedresult="≤ 0.2"
variantspec=LKEG reportedproperty="one-hybrid fitness for binding NBS DNA" observedresult="≤ 0.2"
variantspec=CKWG reportedproperty="one-hybrid fitness for binding NBS DNA" observedresult="≤ 0.2"
variantspec=KKNN reportedproperty="one-hybrid fitness for binding NBS DNA" observedresult="≤ 0.2"
variantspec=FIVS reportedproperty="one-hybrid fitness for binding NBS DNA" observedresult="≤ 0.2"
variantspec=LHEL reportedproperty="one-hybrid fitness for binding NBS DNA" observedresult="≤ 0.2"
variantspec=QTYL reportedproperty="one-hybrid fitness for binding NBS DNA" observedresult="≤ 0.2"
variantspec=KKQP reportedproperty="one-hybrid fitness for binding NBS DNA" observedresult="≤ 0.2"
variantspec=HALK reportedproperty="one-hybrid fitness for binding NBS DNA" observedresult="≤ 0.2"
variantspec=AKQC reportedproperty="one-hybrid fitness for binding NBS DNA" observedresult="≤ 0.2"
variantspec=KKDT reportedproperty="one-hybrid fitness for binding NBS DNA" observedresult="≤ 0.2"
variantspec=KKQT reportedproperty="one-hybrid fitness for binding NBS DNA" observedresult=0.393
variantspec=CVHG reportedproperty="one-hybrid fitness for binding NBS DNA" observedresult="≤ 0.2"
variantspec=QRQS reportedproperty="one-hybrid fitness for binding NBS DNA" observedresult=0.688
variantspec=PYIE reportedproperty="one-hybrid fitness for binding NBS DNA" observedresult="≤ 0.2"
variantspec=QTNG reportedproperty="one-hybrid fitness for binding NBS DNA" observedresult=0.286
variantspec=QCKT reportedproperty="one-hybrid fitness for binding NBS DNA" observedresult=0.778
variantspec=TGAY reportedproperty="one-hybrid fitness for binding NBS DNA" observedresult="≤ 0.2"
variantspec=RMTR reportedproperty="one-hybrid fitness for binding NBS DNA" observedresult=0.446
variantspec=ETCC reportedproperty="one-hybrid fitness for binding NBS DNA" observedresult="≤ 0.2"
variantspec=QAEN reportedproperty="one-hybrid fitness for binding NBS DNA" observedresult="≤ 0.2"
variantspec=WTPE reportedproperty="one-hybrid fitness for binding NBS DNA" observedresult="≤ 0.2"
variantspec=VMQT reportedproperty="one-hybrid fitness for binding NBS DNA" observedresult="≤ 0.2"
variantspec=QTNR reportedproperty="one-hybrid fitness for binding NBS DNA" observedresult=0.936
variantspec=ATHI reportedproperty="one-hybrid fitness for binding NBS DNA" observedresult="≤ 0.2"
variantspec=LRDT reportedproperty="one-hybrid fitness for binding NBS DNA" observedresult="≤ 0.2"
variantspec=RRTL reportedproperty="one-hybrid fitness for binding NBS DNA" observedresult="≤ 0.2"
